Some molecules, each annotated with its measured melting point.

Take a look at these entries with their results.
# Molecule, melting point
measured = [
    ("Cc1ccc(C2SC(=O)NC2=O)cc1C (stereo not drawn)", "121 to 122 °C"),
    ("O=C(O)CCC(=NOCc1ccc(OCc2cn3c(Cl)cccc3n2)cc1)c1ccccc1", "160 to 161 °C"),
]

[ask] // returns reported melting point for input `CC(=O)c1c(-c2ccccc2)nn2ccccc12`
[reply] 84 to 85 °C

* * *

Some compounds, each annotated with its measured melting point.

Take a look at these entries with their results.
# Compound, melting point
rows = [
    ("CCc1ccc(/C=C/c2cc(OC)c(OC)c(OC)c2)cc1", "98 to 100 °C"),
    ("Cc1cc(-c2c(O)c(=O)c2=O)c2c(C)ccc(C(C)C)cc1-2", "120 to 123 °C"),
    ("COc1cc(Oc2cccc(C(F)(F)F)c2)nc(C(=O)NC=C(Cl)Cl)c1", "123 to 125 °C"),
]

[ask] // returns reported melting point for input `O=C(Nc1ccc(N2CCN(Cc3ccccc3)CC2)c(Cl)c1)c1ccccn1`
[reply] 92 to 94 °C

[ask] Same question for `NC(=O)OC(=O)C(Cl)(Cl)Cl` please.
[reply] 183 to 184 °C

[ask] Same question for `O=C(O)c1ccc(NCc2cc(Br)ccc2CCc2ccccc2)cc1` please.
[reply] 132 to 134 °C

[ask] Same question for `Oc1c(Cc2ccccc2)ccc2[nH]ccc12` please.
[reply] 104 to 106 °C

* * *

Metric: melting point

Take a look at these entries with their results.
# Compound, melting point
rows = [
    ("Nc1ccc(S(=O)(=O)Nc2ccc(OP(N)(N)=O)cc2)cc1", "174 to 175 °C"),
    ("COC(=O)C1(C)CN(C(=O)Nc2ccc(C(F)(F)F)cc2)N=C1c1ccc(Cl)cc1 (stereo not drawn)", "143 to 146 °C"),
    ("CCOC(=O)CCC(=O)c1ccc(OCCCCCBr)c(CCC(=O)OCC)c1", "40 to 41 °C"),
]

[ask] // returns reported melting point for input O=C1NC(=O)C(c2ccc(NCc3ccc(Cl)c(Cl)c3)cc2)S1 (stereo not drawn)
[reply] 132 to 133 °C

[ask] Same question for `Nc1cc(Oc2cc(Oc3cc(N)cc(C(F)(F)F)c3)cc(C(F)(F)F)c2)cc(C(F)(F)F)c1` please.
[reply] 82 to 84 °C

[ask] Same question for `O=C(Nc1cccc(F)c1)NN1CC=CCC1` please.
[reply] 136 to 138 °C

[ask] Same question for `CC1(C)OCC(=CCn2cnc3c(Cl)nc(N)nc32)CO1` please.
[reply] 157 to 159 °C

[ask] Same question for `N#Cc1cnc2sc(-c3ccc(CN)cc3)cc2c1Nc1ccc2[nH]ccc2c1` please.
[reply] > 260 °C

* * *

Some molecules, each annotated with its measured melting point.

[ask] // returns reported melting point for input `C=Cc1c(C(C)C)nc(C(C)C)c(CCCCC)c1-c1ccc(F)cc1`
[reply] 44 to 46 °C

[ask] Same question for OC1CCSC(=S)N1c1ccccn1 (stereo not given) please.
[reply] 120 °C

* * *

Please note: true applies when melting point is 80 °C or greater, and false applies otherwise.

# Compound, Group
rows = [
    ("O=S(=O)(Nc1ccc(Cl)nc1I)c1ccc2ncsc2c1", "true"),
    ("O=C(N[C@@H](Cc1ccccc1)C(=O)CSCc1ccco1)OCc1ccccc1", "false"),
    ("CCCN(C1CCC(c2c[nH]c3ccc(F)cc23)CC1)C1COc2cccc(OC)c2C1 (stereo not given)", "true"),
    ("CCCCCCCCCCc1csc2c1sc1c2sc2c3scc(CCCCCCCCCC)c3sc21", "true"),
    ("Cc1c(-c2csc(-c3ccncc3)n2)c(=O)[nH]c2ccccc12", "true"),
    ("O=C(C1CCCC1)[C@H]1CCn2c(cc3ccccc32)C1", "false"),
    ("COC(=O)C=C1CN2C(=O)N(c3cc(Cl)cc(Cl)c3)C(=O)C2(Cc2ccc(Br)cc2)C1 (stereo not given)", "false"),
    ("O=S1(=O)Nc2cccc3c2N1CCC3", "true"),
]

[ask] Hi, just wondering whether CC(C)CC1(Cn2cnc3ccccc32)Sc2[nH]c(=O)n(C)c(=O)c2C1Sc1cccs1 (stereo not given) shows melting point of 80 °C or higher.
[reply] true

[ask] Same question for Cc1cn2c(N)c(Cl)cc(C(=O)NCC3CCN(C(C)C(=O)C(C)(C)C)CC3)c2n1 (stereo not given) please.
[reply] true

* * *

Some molecules, each annotated with its measured melting point.

Take a look at these entries with their results.
# Molecule, Metric, Obs value
measured = [
    ("O=C(O)c1cnc2oc(C(=O)O)cc2c1", "melting point", "> 315 °C"),
    ("O=C(c1ccn2c1CSC2c1cccnc1)c1c[nH]c2ccccc12 (configuration not stated)", "melting point", "237 to 238 °C"),
    ("CCOC(=O)c1cccc2nc(C(C)C)n(Cc3ccc(-c4ccccc4-c4nnn[nH]4)cc3)c12", "melting point", "144 to 146 °C"),
    ("CCCCCCCCC(Cc1cccnc1)(C(=O)NO)S(=O)(=O)c1ccc(OC)cc1 (configuration not stated)", "melting point", "62 °C"),
    ("CC(C)CC(=O)Nc1cccc(-c2ccnc3c(-c4cccc(CN5CCN(C)CC5)c4)cnn23)c1", "melting point", "135 to 138 °C"),
]

[ask] // returns reported melting point for input `CCOC(=O)c1c2ccc(Cl)cc2c(-c2ccccc2)n1CCN(CC)CC`
[reply] 75 to 77 °C

[ask] Same question for `CN(C)c1ncnc2[nH]c(-c3ccc(CO)cc3)cc12` please.
[reply] 306 to 309 °C

[ask] Same question for `CCN(CC)CCNC(=O)c1cnc2ccc(I)cc2c1F` please.
[reply] 88 to 90 °C

[ask] Same question for `COCOc1ccc(CCCOc2nn(C)cc2CC(=O)O)c(Oc2ncc(C(F)(F)F)cc2Cl)c1` please.
[reply] 122 to 123 °C

[ask] Same question for CC(=O)c1c(N)ncn1C1c2ccccc2CC1(C)C (configuration not stated) please.
[reply] 174 to 175 °C

[ask] Same question for Cc1ccc(C(=O)NC(NC(=S)Nc2ccccc2F)C(F)(F)F)cc1 (configuration not stated) please.
[reply] 197 to 198 °C

* * *

Some compounds, each annotated with its measured melting point.

# Compound, melting point
data = [
    ("Cn1c(=O)c2ccccc2n(CCCCCl)c1=O", "99 to 100 °C"),
    ("CC(=O)Oc1cccc2c1C(=O)c1c(O)cccc1C2C(=O)C1CCCCC1 (configuration not stated)", "154 °C"),
    ("CC1CCCCN1CCC(=O)Nc1ccc2c(=O)c3ccc(NC(=O)CCN4CCCCC4C)cc3[nH]c2c1 (configuration not stated)", "> 320 °C"),
]

[ask] // returns reported melting point for input COc1ccc(N(C(=O)CN2C(=O)C(CO)C(=O)N(c3ccccc3)c3ccccc32)C(C)C)cc1 (configuration not stated)
[reply] 136 to 139 °C

[ask] Same question for `CCCCCCc1oc(C=Cc2ccccc2)nc1C(=O)O` please.
[reply] 133 to 134 °C

[ask] Same question for `O=C(O)COc1cc(F)c(F)cc1C(=O)NCc1ccc(Br)cc1F` please.
[reply] 156 to 158 °C

[ask] Same question for `O=Cc1c[nH]c2c1ccc1c3ccc(Br)cc3[nH]c12` please.
[reply] > 250 °C

[ask] Same question for `CCCN(Cc1ccc(-c2ccccc2-c2nc(=S)o[nH]2)cc1)c1nc(C)ncc1C(=O)OCC` please.
[reply] 170 to 172 °C

[ask] Same question for CCc1nc(C(=O)c2ccc(Cl)cc2Cl)c(C(C)O)n1C(CC)CC (configuration not stated) please.
[reply] 125 to 126 °C

[ask] Same question for `CCOc1ccc(NC=C(C#N)C(=O)Nc2cc(OC)c(Cl)cc2Cl)cc1Br` please.
[reply] > 250 °C

[ask] Same question for `COc1cc(Nc2nccc(-c3ccc(N4CCNCC4)nc3)n2)cc(OC)c1OC` please.
[reply] 103 °C

[ask] Same question for `Cc1cc(OCc2nc(-c3ccc(C(F)(F)F)cc3)no2)ccc1OC(C)(C)C(=O)O` please.
[reply] 170 °C

* * *

Some molecules, each annotated with its measured melting point.

Take a look at these entries with their results.
# Given smiles, melting point
data = [
    ("CN(CCO)Cc1cc(NC(=N)c2cccs2)ccc1C1CCCC1", "116 to 118 °C"),
    ("CCOC(=O)CNc1cc(Cl)nc(NCc2ccc(Cl)cc2)n1", "168 to 170 °C"),
    ("CC(c1ccc(OCCO)cc1)(c1ccc(OCCO)cc1)c1ccc(OCCO)cc1", "78 to 81 °C"),
]

Next, consider the following molecule.
[ask] // returns reported melting point for input `CS(=O)(=O)n1ccc(-c2ccc(Oc3ccccc3)cc2)n1`
[reply] 136 °C
